All figures here come from patent US20050256058A1.

target: T1, Caspase-3 (UniProt P42574 29-277)
T1 sequence (looked up): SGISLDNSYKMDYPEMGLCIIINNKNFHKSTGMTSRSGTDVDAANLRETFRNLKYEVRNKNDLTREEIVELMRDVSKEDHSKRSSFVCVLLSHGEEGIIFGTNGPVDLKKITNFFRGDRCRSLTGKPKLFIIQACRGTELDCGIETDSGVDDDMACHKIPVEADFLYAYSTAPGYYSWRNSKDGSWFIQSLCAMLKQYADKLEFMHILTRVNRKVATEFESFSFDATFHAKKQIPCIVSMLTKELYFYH
protocol.notes: cell-based or functional assay
Numbered stars: 1 amine (or outer) side, 2 acyl side, 3 side chain; on linkers, the order of the positions; unused ones are H or OH. Square brackets hold non-standard residues; d marks the D form. * marks the point of attachment. AAsp = aza-Asp, O=C(N(CC(=O)[*:3])N[*:1])[*:2]; CH═CH‑CON(CH3)CH2Ph = CN(Cc1ccccc1)C(=O)/C=C/*; Cbz = O=C(OCc1ccccc1)*
quantity.measured: k2 (M⁻¹ s⁻¹)
Give the number; M⁻¹ s⁻¹ is assumed, so skip it.

binder: Cbz-LET[AAsp]-{CH═CH‑CON(CH3)CH2‑1‑Napth} [Cbz-Leu-Glu-Thr-AAsp-CH═CH-CON(CH3)CH2-1-Napth]
units: M⁻¹ s⁻¹
k2: 11200

What does the data say about its k2? Entry: Cbz-LET[AAsp]-{CH═CH‑CO‑tetrahydroquinoline} [Cbz-Leu-Glu-Thr-AAsp-CH═CH-CON-tetrahydroquinoline]
12100

Another binder to check: Cbz-Val-[AAsp]-{CH═CH‑CONHCH2Ph} [Cbz-Val-AAsp-CH═CH-CONHCH2Ph]
185

Same again, this time with Cbz-LET[AAsp]-{CH═CH‑CONHCH2Ph} [Cbz-Leu-Glu-Thr-AAsp-CH═CH-CONHCH2Ph]
1120

Again, but for Cbz-LET[AAsp]-{CH═CH‑CON(CH3)CH2Ph} (SMILES CC(C)C[C@H](NC(=O)OCc1ccccc1)C(=O)N[C@@H](CCC(=O)O)C(=O)N[C@H](C(=O)NN(CC(=O)O)C(=O)/C=C/C(=O)N(C)Cc1ccccc1)[C@@H](C)O) [Cbz-Leu-Glu-Thr-AAsp-CH═CH-CON(CH3)CH2Ph]
6000
